System: T1, Human NKp46 antigen for immunization, screening, and testing (Kactus, NKP-HM146) (human, UniProt O76036 22-255)
T1 construct: Bought protein; also called human NKp46 antigen protein; human NKp46 protein
T1 sequence (O76036 other isoform, or with tags, fused parts or gaps limits assumed): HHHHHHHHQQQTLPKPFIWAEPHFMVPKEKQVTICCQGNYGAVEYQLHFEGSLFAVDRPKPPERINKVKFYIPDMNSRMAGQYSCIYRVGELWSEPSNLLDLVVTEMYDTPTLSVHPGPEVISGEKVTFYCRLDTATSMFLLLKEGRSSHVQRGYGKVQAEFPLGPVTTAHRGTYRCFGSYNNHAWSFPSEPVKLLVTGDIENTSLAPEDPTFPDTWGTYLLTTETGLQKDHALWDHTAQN
Protocol notes: SPR (Biacore 8K), antibody captured on anti-human Fc, NKp46 as analyte, 1:1 fit
Measured property: kon (M⁻¹ s⁻¹)
Give the value, in units of M⁻¹ s⁻¹, as a plain number.

Sample records with kon:
Binder: H2-PA31 humanized antibody (antibody, human IgG1, V domains shown, not shown: constant region of human IgG1) VH: EVQLVESGGGLVQPGGSLRLSCAVSGRTFSRLPMGWFRQAPGKGLEFVAAISWSSSTTYYADSVKGRFTISRDNSKNTAYLQMNSLRAEDTAVYYCAAVGGSLDYSATVVYTAARAYADWGQGTLVTVSS
Units label: M⁻¹ s⁻¹
Reported value: 87800
--
Binder: H4-PA45 humanized antibody (antibody, V domains shown, not shown: constant region of human IgG1) VH: EVQLVESGGGLVQPGGSLRLSCAASGRTFSRLPMAWFRQAPGKDREFVAAISWSGGSTYYADSMKGRFTISRDNSKNTAYLQMNSLRAEDTAVYYCAAVGDSAPYSATIVYTDARAYAYWGQGTLVTVSS
Units label: M⁻¹ s⁻¹
Reported value: 93000
--
Binder: H2-PA45 humanized antibody (antibody, V domains shown, not shown: constant region of human IgG1) VH: EVQLVESGGGLVQPGGSLRLSCAASGRTFSRLPMAWFRQAPGKGLEFVAAISWSGGSTYYADSMKGRFTISRDNSKNTAYLQMNSLRAEDTAVYYCAAVGDSAPYSATIVYTDARAYAYWGQGTLVTVSS
Units label: M⁻¹ s⁻¹
Reported value: 63800

Q. Requested field: kon. Item: H2-PC11 humanized antibody (antibody, human IgG1, V domains shown, not shown: constant region of human IgG1) VH: EVQLVESGGGLVQPGGSLRLSCAPSPYSANSFSMAWFRQAPGKGLEGIACIQAESGSTNVAPSVKGRFTISQDNSKNTLYLQMNSLRAEDTAVYYCAAFKRNVGGCELRPEHWRFWGQGTLVTVSS
A. 61300

Q. Requested field: kon. Item: H4-PA27 humanized antibody (antibody, human IgG1, V domains shown, not shown: constant region of human IgG1) VH: DVQLVESGGGVVQPGRSLRLSCAASGRTESWYRMGWFRQAPGKGREVVARISGDTNIKYYAGSVKGRFTISRDNSKNTLYLQMSSLRAEDTAVYYCAADRTGATWDYWGQGTLVTVSS
A. 112000
